- Protocol Details: folding stability dG unfold from trypsin proteolysis; higher = more stable
Below: a set of entries, each annotated with reported folding stability dG unfold.

- Monomer Sequence: "SAGGGSDTVPPVPKATITFTLPAESPEEAEAAAEEIARELEEEGGIPATATVTTDPETGTVTVTITLESAGG [r13_517_TrMRF]"
  folding stability dG unfold [kcal/mol]: 0.971
- Monomer Sequence: "SAGGSAGGSAGMTVEEFTIPEVGGRVIRTTVEEPTEDGVVVRRRYLILVNPDGTVERRPESAGGSAGGSAGG [r11_911_JUSTAS]"
  folding stability dG unfold [kcal/mol]: -0.0463
- Monomer Sequence: "SDKIKNMTIEEILKKLPKGVKVGEKVEIEIDGKKITITKVEVVKDKNGKEIKRIYIEVEIDGEKIIIEIESA [r9_279_TrROS_Hall]"
  folding stability dG unfold [kcal/mol]: 2.39
- Monomer Sequence: "SAGGSAGGSAGEPEYVRVRIRVRRRVRNKETGKWEEKEVELTLVFPSKEEALKALEELGLSAGGSAGGSAGG [r11_984_TrROS_Hall]"
  folding stability dG unfold [kcal/mol]: 3.99

----------
- Protocol Details: folding stability dG unfold from chymotrypsin proteolysis; higher = more stable
Mark criterion met for reported folding stability dG unfold of 2 kcal/mol or greater; mark criterion not met for anything smaller.

- Monomer Sequence: "SAGGSAGGSAPNLEVEEQRNPDGGMEMEIIRLKNDGLTIFFMEMRPDDKTMTMLMLMPLDASAGGSAGGSAG [r3_126_TrROS]"
  Class Assignment: "criterion met"
- Monomer Sequence: "SAGELKPGQIVVRTIEIDLPEEDEELREAIERGELIELELEDGSRVLMRVERKDGKLRITEVVILPRPESAG [r5_223_TrROS_Hall]"
  Class Assignment: "criterion met"
- Monomer Sequence: "SAGGSAGGSAGIGSKKPVIKKNIEIEPEIKVEGGKGGSKVKIEYKAKIEIKVYIISKNNPSAGGSAGGSAGG [r17_186_TrMRF]"
  Class Assignment: "criterion met"
- Monomer Sequence: "SAGGPVETPGPHPLRPVPVVEPKKVVVTYPDLSPEEAAALAAELEAQGATTSFDPATGTLTVTLTGLSAGGS [r16_765_JUSTAS]"
  Class Assignment: "criterion met"
- Monomer Sequence: "SMDPGDPILITIKIPPVPVYRYKRDPDGNPKGYEPVPMPSQELVIIIPANDLEKLLDLLQPFGLDVEIIPSA [r9_167_TrROS]"
  Class Assignment: "criterion met"
- Monomer Sequence: "SAGGSAGGSAGGMTTVTTLETRPLPDGTTVTREVVTDENGTVVSTTVSRVSPEGVVTAESAGGSAGGSAGGS [r10_1014_JUSTAS]"
  Class Assignment: "criterion not met"
- Monomer Sequence: "SAGGSAGGEIPADAEIEEFEFGGKPYFLVRFPDGTAALYERKGDKWELIATVPVPPDSRIFFKGSAGGSAGG [r6_475_TrMRF]"
  Class Assignment: "criterion not met"
- Monomer Sequence: "SAGGSFEVEVEVERYPEENYYYVKIPIRLPNNGKKIPLDVPVPADDPEPAEKWAKFIAKELAKQGISAGGSA [r2_221_TrROS]"
  Class Assignment: "criterion not met"
- Monomer Sequence: "SAGGSAAPVSRVVELEFVLPPELVAEAVDALRKLPGVKASFELAEVLPDGYVRVRVTIEVPDDVDLSAGGSA [r15_441_TrMRF]"
  Class Assignment: "criterion met"
- Monomer Sequence: "SAGGSAGGSSYTVSEDPNSSSTTITDPVTGRTVLRSPSSWTVVDPETGEEKSFPAGTVVTLPESAGGSAGGS [r12_584_JUSTAS]"
  Class Assignment: "criterion not met"
- Monomer Sequence: "SAGGSAGETVYRVKIRVNGEELEIEVSAEELEALKALPGLEIELVRVEPAPPPEREETVVPEEEEESAGGSA [r15_443_TrROS_Hall]"
  Class Assignment: "criterion met"
- Monomer Sequence: "SMVTETSEEVKLPSPVRLLIDKKITTFPESGVVEVPTLVTVIPPSGPDTTLPYRVLYTINDDTYTEKRLLSA [r9_154_JUSTAS]"
  Class Assignment: "criterion not met"
- Monomer Sequence: "SAGGSAGGSAGAEIKIKKVEKKDSKLKLILPDGRIYEVKKDKKKSNSIKKIKIKKLPPLKSAGGSAGGSAGG [r17_173_JUSTAS]"
  Class Assignment: "criterion not met"
- Monomer Sequence: "SAGGSAGGSKTVYRITIYNEKTGKKLVIEIEESMSEEEKEQKIKDLLKKLLPPGAKIKIEKVPSAGGSAGGS [r20_213_TrROS_Hall]"
  Class Assignment: "criterion met"
- Monomer Sequence: "PPVGPDAPVTPTTTPTPSGKTVTTTDRPLRREVTTTDPSTGTYTVTLTETDAAGRVLATRTETLSPEEVAAS [r1_380_JUSTAS]"
  Class Assignment: "criterion not met"
- Monomer Sequence: "STTEVEVTPLPGNSTLVTTTTTTPEFDPANGTIRYTSETTTTTITYTPGTTEPTTTTTTTTTTTTIPATTSA [r9_140_JUSTAS]"
  Class Assignment: "criterion not met"
- Monomer Sequence: "SAKIVVKLPEKPKVAVIEFPPGMTKEEILKALEEVPGLSEEEREALKKKIEELEALAKNPELLKKLEEESAG [r14_732_TrROS_Hall]"
  Class Assignment: "criterion not met"
- Monomer Sequence: "SAGGSAGGSAGGSAVTSDGTEVEPDQLVEEATLTPPDGEPVRLRVYAVPDSDEVVTEAGSAGGSAGGSAGGS [r4_13_TrMRF]"
  Class Assignment: "criterion not met"
- Monomer Sequence: "SSSSMKTVFDPNRPYPRTVLVTFLPDGTVVITAPGKKLSTVKVEIEPPPPLELRPRVSPNGERSPGYLRLGS [r1_496_JUSTAS]"
  Class Assignment: "criterion not met"
- Monomer Sequence: "STIRITLPKEELSPELLEALAKAPGLSEEELRDRLTVEEVDGEVVITLSPEVLEELRKRNPELLEALEKASA [r9_160_TrROS_Hall]"
  Class Assignment: "criterion not met"
- Monomer Sequence: "SAGGMPADTPVIPIEILDIRVEPDPESDSYTAEVKVRFPDGTEKTFTIKLPKDATLEDVIEKAKELAASAGG [r13_578_TrMRF]"
  Class Assignment: "criterion met"
- Monomer Sequence: "SAPVIEITEVTFNPDGSVEVTLVIPFPDDPEIPPEEIAKAIKEAFGFEEVTVEPIPETGAWRITLRAPGSAG [r14_228_TrMRF]"
  Class Assignment: "criterion met"
- Monomer Sequence: "SAGGMLGFRAETDLFVEPIPPGAEVEPLRIGDRLLLIVRHPDGSYTINLFTPVRPLPVPPAFSTANAASAGG [r13_804_TrMRF]"
  Class Assignment: "criterion not met"
- Monomer Sequence: "SAGGSAGGSAGGSSSMTSEKVTEKTEFDKETGKKYKIITQRISPSSVGNSSLKTEIKLESAGGSAGGSAGGS [r10_535_JUSTAS]"
  Class Assignment: "criterion not met"
- Monomer Sequence: "SAGGSAMPVEFPSEGVVEAVNPKTGKVYLIRYETGDTKTRFVIFEPGTGEVRVIDEDTTFEEAVEDSAGGSA [r15_234_TrMRF]"
  Class Assignment: "criterion not met"
- Monomer Sequence: "SAGGSAKVTIDTDNGIIKIEVGGKLIAEIEIPPGFPGGIYLEYEPNPPTLKFYIYTKNGPVYINDISAGGSA [r2_399_TrMRF]"
  Class Assignment: "criterion met"

The reported measurements were obtained from the supplement of paper PMC12764529.
